assay: Single-dose intravenous pharmacokinetics in mice; assay type: in vivo, mouse; settings: male, BALB/c, mouse, plasma, iv, 4.5 mg/kg, BALB/c mouse, M, n=3, 4.5 mg/kg single IV; plasma LC/MS/MS, non-compartmental; one time point per animal; read-out: t1/2 (converted)
VALUE_TYPE: half-life (min)

STRUCTURE_STRING | OBSERVED_VALUE
CC(=O)N[C@H]1CSSC[C@@H](C(N)=O)NC(=O)[C@H](CC(=O)O)NC(=O)[C@@H]2CCCN2C(=O)CNC(=O)[C@H](CCCCN)NC(=O)[C@H](CC(=O)O)NC(=O)CNC(=O)[C@H](CCCNC(=N)N)NC1=O | 20.6

---

assay: Single-dose intravenous pharmacokinetics in rats; assay type: in vivo, rat; conditions: male; Sprague-Dawley rat, M, n=6, single IV; plasma LC/MS/MS, non-compartmental; one time point per animal

MOLECULE | C0 (µg/mL)
CC(=O)N[C@H]1CSSC[C@@H](C(N)=O)NC(=O)[C@H](CC(=O)O)NC(=O)[C@@H]2CCCN2C(=O)CNC(=O)[C@H](CCCCN)NC(=O)[C@H](CC(=O)O)NC(=O)CNC(=O)[C@H](CCCNC(=N)N)NC1=O [CEND-1] | 469

---

Experiment: Single-dose intravenous pharmacokinetics in rats
Type: in vivo, rat
Settings: female; Sprague-Dawley rat, F, n=6, 1 mg/kg single IV; plasma LC/MS/MS, non-compartmental; one time point per animal
Description: The in vivo pharmacokinetic profile of CEND-1 after a single dose was evaluated in four non-GLP animal studies including Sprague-Dawley rats, Beagle dogs, cynomolgus monkeys and BALB/c mice following the intravenous injection of CEND-1 at various doses ([…]; 1.5, 4.5 and 13.5 mg/kg for mice) (Table 1). […] Plasma CEND-1 was quantified by validated liquid chromatography coupled with a tandem mass spectrometry (LC/MS/MS) assay. […]

STRUCTURE_STRING | AUC(0-inf) [ng·h/mL]
CC(=O)N[C@H]1CSSC[C@@H](C(N)=O)NC(=O)[C@H](CC(=O)O)NC(=O)[C@@H]2CCCN2C(=O)CNC(=O)[C@H](CCCCN)NC(=O)[C@H](CC(=O)O)NC(=O)CNC(=O)[C@H](CCCNC(=N)N)NC1=O | 1750

---

assay: Single-dose intravenous pharmacokinetics in mice; assay type: in vivo, mouse; conditions: male; BALB/c mouse, M, n=3, 13.5 mg/kg single IV; plasma LC/MS/MS, non-compartmental; one time point per animal; read-out: V

MOLECULE | U | Vd
CC(=O)N[C@H]1CSSC[C@@H](C(N)=O)NC(=O)[C@H](CC(=O)O)NC(=O)[C@@H]2CCCN2C(=O)CNC(=O)[C@H](CCCCN)NC(=O)[C@H](CC(=O)O)NC(=O)CNC(=O)[C@H](CCCNC(=N)N)NC1=O [CEND-1] | L/kg | 1.01

---

assay: Single-dose intravenous pharmacokinetics in rats; format: in vivo, rat; settings: female; Sprague-Dawley rat, F, n=6, 5 mg/kg single IV; plasma LC/MS/MS, non-compartmental; one time point per animal; read-out: t1/2 (converted)

MOLECULE | half-life
CC(=O)N[C@H]1CSSC[C@@H](C(N)=O)NC(=O)[C@H](CC(=O)O)NC(=O)[C@@H]2CCCN2C(=O)CNC(=O)[C@H](CCCCN)NC(=O)[C@H](CC(=O)O)NC(=O)CNC(=O)[C@H](CCCNC(=N)N)NC1=O [CEND-1] | 26.2 min

---

experiment: Single-dose intravenous pharmacokinetics in rats; assay type: in vivo, rat; conditions: female; Sprague-Dawley rat, F, n=6, 5 mg/kg single IV; plasma LC/MS/MS, non-compartmental; one time point per animal

STRUCTURE_STRING | C0 [ng/mL]
CC(=O)N[C@H]1CSSC[C@@H](C(N)=O)NC(=O)[C@H](CC(=O)O)NC(=O)[C@@H]2CCCN2C(=O)CNC(=O)[C@H](CCCCN)NC(=O)[C@H](CC(=O)O)NC(=O)CNC(=O)[C@H](CCCNC(=N)N)NC1=O | 28400

---

assay: Single-dose intravenous pharmacokinetics in mice; type: in vivo, mouse; conditions: male, BALB/c, mouse, plasma, iv, 1.5 mg/kg, BALB/c mouse, M, n=3, 1.5 mg/kg single IV; plasma LC/MS/MS, non-compartmental; one time point per animal; read-out: t1/2 (converted)
VALUE_TYPE: half-life

STRUCTURE_STRING | OBSERVED_VALUE
CC(=O)N[C@H]1CSSC[C@@H](C(N)=O)NC(=O)[C@H](CC(=O)O)NC(=O)[C@@H]2CCCN2C(=O)CNC(=O)[C@H](CCCCN)NC(=O)[C@H](CC(=O)O)NC(=O)CNC(=O)[C@H](CCCNC(=N)N)NC1=O | 18.4 min

---

experiment: Single-dose intravenous pharmacokinetics in dogs; type: in vivo, dog; conditions: male; Beagle dog, M, n=3, 5 mg/kg single IV; plasma LC/MS/MS, non-compartmental; mean (SD); read-out: AUC0-inf

STRUCTURE_STRING | AUC(0-inf) / ng·h/mL
CC(=O)N[C@H]1CSSC[C@@H](C(N)=O)NC(=O)[C@H](CC(=O)O)NC(=O)[C@@H]2CCCN2C(=O)CNC(=O)[C@H](CCCCN)NC(=O)[C@H](CC(=O)O)NC(=O)CNC(=O)[C@H](CCCNC(=N)N)NC1=O | 20600

---

assay: Clinical pharmacokinetics in patients with metastatic pancreatic ductal adenocarcinoma; assay type: in vivo, human; conditions: human, plasma; patients, run-in day 1, 1.6 and 3.2 mg/kg IV; SD = 317.9; read-out: mean plasma concentration by 8 h post-dose

STRUCTURE_STRING | U | level at 8 h
CC(=O)N[C@H]1CSSC[C@@H](C(N)=O)NC(=O)[C@H](CC(=O)O)NC(=O)[C@@H]2CCCN2C(=O)CNC(=O)[C@H](CCCCN)NC(=O)[C@H](CC(=O)O)NC(=O)CNC(=O)[C@H](CCCNC(=N)N)NC1=O | ng/mL | 439

---

assay: Single-dose intravenous pharmacokinetics in rats; format: in vivo, rat; settings: female; Sprague-Dawley rat, F, n=6, 1 mg/kg single IV; plasma LC/MS/MS, non-compartmental; one time point per animal; read-out: V
VALUE_TYPE: Vd

STRUCTURE_STRING | VALUE_TYPE | OBSERVED_VALUE
CC(=O)N[C@H]1CSSC[C@@H](C(N)=O)NC(=O)[C@H](CC(=O)O)NC(=O)[C@@H]2CCCN2C(=O)CNC(=O)[C@H](CCCCN)NC(=O)[C@H](CC(=O)O)NC(=O)CNC(=O)[C@H](CCCNC(=N)N)NC1=O | Vd | 0.201 L/kg

---

assay: Single-dose intravenous pharmacokinetics in rats; type: in vivo, rat; details: female; Sprague-Dawley rat, F, n=6, 1 mg/kg single IV; plasma LC/MS/MS, non-compartmental; one time point per animal; read-out: t1/2 (converted)
VALUE_TYPE: half-life (min)

STRUCTURE_STRING | OBSERVED_VALUE
CC(=O)N[C@H]1CSSC[C@@H](C(N)=O)NC(=O)[C@H](CC(=O)O)NC(=O)[C@@H]2CCCN2C(=O)CNC(=O)[C@H](CCCCN)NC(=O)[C@H](CC(=O)O)NC(=O)CNC(=O)[C@H](CCCNC(=N)N)NC1=O | 14.9

---

experiment: Single-dose intravenous pharmacokinetics in cynomolgus monkeys; format: in vivo; conditions: male; cynomolgus monkey, M, n=3, 50 mg/kg single IV; plasma LC/MS/MS, non-compartmental; mean (SD); read-out: V

COMPOUND | Vd / L/kg
CC(=O)N[C@H]1CSSC[C@@H](C(N)=O)NC(=O)[C@H](CC(=O)O)NC(=O)[C@@H]2CCCN2C(=O)CNC(=O)[C@H](CCCCN)NC(=O)[C@H](CC(=O)O)NC(=O)CNC(=O)[C@H](CCCNC(=N)N)NC1=O [CEND-1] | 0.162

---

experiment: Single-dose intravenous pharmacokinetics in rats; type: in vivo, rat; conditions: female; Sprague-Dawley rat, F, n=6, single IV; plasma LC/MS/MS, non-compartmental; one time point per animal; read-out: Cl_obs (converted)

STRUCTURE_STRING | clearance
CC(=O)N[C@H]1CSSC[C@@H](C(N)=O)NC(=O)[C@H](CC(=O)O)NC(=O)[C@@H]2CCCN2C(=O)CNC(=O)[C@H](CCCCN)NC(=O)[C@H](CC(=O)O)NC(=O)CNC(=O)[C@H](CCCNC(=N)N)NC1=O | 7.52 mL/min/kg

---

test: Single-dose intravenous pharmacokinetics in mice; assay type: in vivo, mouse; settings: male; BALB/c mouse, M, n=3, 13.5 mg/kg single IV; plasma LC/MS/MS, non-compartmental; one time point per animal; read-out: C0
VALUE_TYPE: C0 (µg/mL)

COMPOUND | VALUE_TYPE | OBSERVED_VALUE
CC(=O)N[C@H]1CSSC[C@@H](C(N)=O)NC(=O)[C@H](CC(=O)O)NC(=O)[C@@H]2CCCN2C(=O)CNC(=O)[C@H](CCCCN)NC(=O)[C@H](CC(=O)O)NC(=O)CNC(=O)[C@H](CCCNC(=N)N)NC1=O [CEND-1] | C0 | 68.4
